test system: J774; assay: Cytotoxicity against mouse J774 cells; format: cell-based
value.type: EC50

Record excerpt, results attached:
CCc1cc2c(=O)c(C(=O)OC)c[nH]c2cc1OCCOc1ccccc1 : > 20 µM
COC(=O)c1c[nH]c2cc(OCCOc3ccccc3)c(Cl)cc2c1=O : > 20 µM
CCCCc1cc2c(=O)c(C(=O)NC(C)C)c[nH]c2cc1OCCOc1ccccc1 : > 20 µM
CCc1ccc2[nH]cc(C(=O)OC)c(=O)c2c1 : > 20 µM
CCCCc1cc2c(=O)c(Br)c(C)[nH]c2cc1OCCOc1ccccc1 : > 10 µM

Now, please, on to the next molecule.
Please report EC50 for the following molecule: "COC(=O)c1c[nH]c2ccc(C(C)C)cc2c1=O" > 20 µM
